Tested on: HCC1954 cells (with PI3Kα H1047R mutation)
Assay: In vitro inhibition of HCC1954 cell proliferation (CellTiter-Lumi)
Type: cell-based
Settings: Homo sapiens, HCC1954, 144 h, HCC1954 cells, 144 h, CellTiter-Lumi; numeric values; read-out: Inhibitory activity against HCC1954 cells (IC50)
Quantity Kind: pIC50
Lab note: report pIC50 as minus log10 of the concentration in molar units, number only.

As a guide, the following entries are already answered.
molecule="C=CC(=O)Nc1ccc(N2CC(N3CCN(c4cc5c(cc4F)OCCn4cc(N6C(=O)OC[C@H]6C(F)F)nc4-5)CC3)C2)cc1 [Compound 102]" test_system="HCC1954 cells (with PI3Kα H1047R mutation)" quantity_kind=pIC50 value_reported=6.63
molecule="CN(C)C/C=C/C(=O)Nc1ccc(N2CC(N3CCN(c4ccc5c(c4)-c4nc(N6C(=O)OC[C@H]6C(F)F)cn4CCO5)CC3)C2)cn1 [Compound 148]" test_system="HCC1954 cells (with PI3Kα H1047R mutation)" quantity_kind=pIC50 value_reported=8.00
molecule="C=CC(=O)N1CC[C@@H](C(=O)N2CC3(CCN(c4ccc5c(c4)-c4nc(N6C(=O)OC[C@H]6C(F)F)cn4CCO5)CC3)C2)C1 [Compound 21]" test_system="HCC1954 cells (with PI3Kα H1047R mutation)" quantity_kind=pIC50 value_reported=6.60
molecule="CN(C)C(C)(C)C=C(C#N)C(=O)Nc1ccc(N2CC(N3CCN(c4ccc5c(c4)-c4nc(N6C(=O)OC[C@H]6C(F)F)cn4CCO5)CC3)C2)cc1 [Compound 150]" test_system="HCC1954 cells (with PI3Kα H1047R mutation)" quantity_kind=pIC50 value_reported=6.92
molecule="C=CC(=O)Nc1ccc(CN2C[C@@H]3CN(c4ccc5c(c4)-c4nc(N6C(=O)OC[C@H]6C(F)F)cn4CCO5)C[C@@H]3C2)cc1 [Compound 41]" test_system="HCC1954 cells (with PI3Kα H1047R mutation)" quantity_kind=pIC50 value_reported=6.72
molecule="C=CC(=O)N1CC(CN2CC(N3CCN(c4ccc5c(c4)-c4nc(N6C(=O)OC[C@H]6C(F)F)cn4CCO5)CC3)C2)C1 [Compound 91]" test_system="HCC1954 cells (with PI3Kα H1047R mutation)" quantity_kind=pIC50 value_reported=6.81

Measured on HCC1954 cells (with PI3Kα H1047R mutation), C=CC(=O)N1CCC(C(=O)NCC(=O)N2CCN(c3ccc4c(c3)-c3nc(N5C(=O)OC[C@H]5C(F)F)cn3CCO4)CC2)CC1 [Compound 6] has a documented pIC50 of 6.18

---

Test system: HCC1954 cells (with PI3Kα H1047R mutation)
Experiment: In vitro inhibition of HCC1954 cell proliferation (CellTiter-Lumi)
Assay type: cell-based
Conditions: Homo sapiens, HCC1954, 144 h, HCC1954 cells, 144 h, CellTiter-Lumi; numeric values; read-out: Inhibitory activity against HCC1954 cells (IC50)
Strictly below 50 nM in IC50: Condition met. Otherwise: Condition not met.

Worked set:
compound="C=CC(=O)Nc1ccc(N2CC(N3CCN(c4ccc5c(c4)-c4nc(N6C(=O)OC[C@H]6C(F)F)cn4CCO5)CC3)C2)c(C)n1 [Compound 151]" label_value="Condition met"
compound="C=CC(=O)N1CCc2cc(N3CC(N4CCN(c5ccc6c(c5)-c5nc(N7C(=O)OC[C@H]7C(F)F)cn5CCO6)CC4)C3)c(F)cc21 [Compound 177]" label_value="Condition met"

Q. Please let me know if C=CC(=O)N1CC(C(=O)N2CC3(CCN(c4ccc5c(c4)-c4nc(N6C(=O)OC[C@H]6C(F)F)cn4CCO5)CC3)C2)C1 [Compound 86] shows IC50 below 50 nM.
A. Condition not met

Q. Please let me know if COCC#CC(=O)Nc1ccc(N2CC(N3CCN(c4ccc5c(c4)-c4nc(N6C(=O)OC[C@H]6C(F)F)cn4CCO5)CC3)C2)cc1 [Compound 168] shows IC50 below 50 nM.
A. Condition met

Q. Please let me know if C=CC(=O)Nc1ccc(C2CN(C3CCN(c4ccc5c(c4)-c4nc(N6C(=O)OC[C@H]6C(F)F)cn4CCO5)CC3)C2)cc1 [Compound 160] shows IC50 below 50 nM.
A. Condition met

Q. Please let me know if C=CC(=O)N1CCc2nc(N3CC(N4CCN(c5ccc6c(c5)-c5nc(N7C(=O)OC[C@H]7C(F)F)cn5CCO6)CC4)C3)ccc21 [Compound 169] shows IC50 below 50 nM.
A. Condition met

Q. Please let me know if CNC/C=C/C(=O)Nc1ccc(N2CC(N3CCN(c4ccc5c(c4)-c4nc(N6C(=O)OC[C@H]6C(F)F)cn4CCO5)CC3)C2)cc1 [Compound 186] shows IC50 below 50 nM.
A. Condition met

Q. Please let me know if CC(C)(C=C(C#N)C(=O)Nc1ccc(N2CC(N3CCN(c4ccc5c(c4)-c4nc(N6C(=O)OC[C@H]6C(F)F)cn4CCO5)CC3)C2)cc1)N1CCOCC1 [Compound 138] shows IC50 below 50 nM.
A. Condition not met

Q. Please let me know if C=CC(=O)Nc1ccc(N2CCC3(CC2)CCN(c2ccc4c(c2)-c2nc(N5C(=O)OC[C@H]5C(F)F)cn2CCO4)CC3)cc1 [Compound 183] shows IC50 below 50 nM.
A. Condition not met

Q. Please let me know if C=CC(=O)Nc1ccc(N2CCC(CN3CCN(c4ccc5c(c4)-c4nc(N6C(=O)OC[C@H]6C(F)F)cn4CCO5)CC3)CC2)cc1 [Compound 12] shows IC50 below 50 nM.
A. Condition not met

Q. Please let me know if C=CC(=O)Nc1ccc(N2CC(N3CCN(c4ccc5c(c4)-c4nc(N6C(=O)OC[C@H]6C)cn4CCO5)CC3)C2)cc1 [Compound 131] shows IC50 below 50 nM.
A. Condition not met

Q. Please let me know if C=CC(=O)Nc1ccc(N2CCC(N3CCN(c4ccc5c(c4)-c4nc(N6C(=O)OC[C@H]6C(F)F)cn4CCO5)CC3)C2)cc1 (single isomer, unassigned) [Compound 29] shows IC50 below 50 nM.
A. Condition not met

Q. Please let me know if C=CC(=O)Nc1ccc(N2CC(CN3CC4(C3)CN(c3ccc5c(c3)-c3nc(N6C(=O)OC[C@H]6C(F)F)cn3CCO5)C4)C2)cc1 [Compound 25] shows IC50 below 50 nM.
A. Condition not met

Q. Please let me know if C=CC(=O)N1CC[C@H](C(=O)NCC(=O)N2CCN(c3ccc4c(c3)-c3nc(N5C(=O)OC[C@H]5C(F)F)cn3CCO4)CC2)C1 [Compound 3] shows IC50 below 50 nM.
A. Condition not met

Q. Please let me know if C=C(F)C(=O)Nc1ccc(N2CC(CN3CCN(c4ccc5c(c4)-c4nc(N6C(=O)OC[C@H]6C(F)F)cn4CCO5)CC3)C2)cc1 [Compound 46] shows IC50 below 50 nM.
A. Condition not met

Q. Please let me know if C=CC(=O)Nc1ccc(N2CC(N3CCN(c4ccc5c(c4)-c4nc(N6C(=O)OC[C@H]6C(F)F)cn4CCO5)CC3)C2)c(C)c1 [Compound 129] shows IC50 below 50 nM.
A. Condition met
